- target-system: Pantothenate synthetase (Mycobacterium tuberculosis (strain ATCC 25618 / H37Rv))
- method-notes: Coupled enzyme confirmation of inhibitors against recombinant Mtb PanC (AID 375);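 note: 0% = full reaction with vehicle and 100% = no enzyme background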
- conditions-used: coupled enzyme assay; at 10 µM, stronger effect = higher value
assay-readout: inhibition (%)
Give bare numbers, in %.

Guide cases for inhibition, answers given:
# compound, target-system, assay-readout, assay-value
rows = [
    ("COc1ccccc1CN1CC(C(=O)N2CCN(c3ccc(F)cc3)CC2)CC1=O (stereo unspecified)", "Pantothenate synthetase (Mycobacterium tuberculosis (strain ATCC 25618 / H37Rv))", "inhibition", 0),
    ("O=C(CCNS(=O)(=O)c1cccc2nsnc12)Nc1ccc2c(c1)OCCO2", "Pantothenate synthetase (Mycobacterium tuberculosis (strain ATCC 25618 / H37Rv))", "inhibition", 0),
    ("CC(C)(C)c1ccccc1NC(=O)c1cccnc1", "Pantothenate synthetase (Mycobacterium tuberculosis (strain ATCC 25618 / H37Rv))", "inhibition", 10),
]

Batch of 7 compounds: report inhibition for each.
1. O=C(O)c1cc(-c2ccccc2Cl)n[nH]1
2. CN(C(=O)c1ccno1)c1nnc(-c2cnccn2)s1
3. Cc1csc2nc(CNC(=O)c3ccco3)cn12
4. CCCC1CCC(C(=O)Nn2cnc3ccccc3c2=O)CC1 (stereo unspecified)
5. Cc1ccc(S(=O)(=O)NCCNC(=O)C2CCCNC2=O)cc1 (stereo unspecified)
6. O=C1c2oc3ccccc3c(=O)c2C(c2ccccn2)N1Cc1ccccc1 (stereo unspecified)
7. Cc1ccc(C2=Nc3ccccc3NC(C)(c3ccc(C)o3)C2)o1 (stereo unspecified)

1. 2
2. 2
3. 0
4. 1
5. 6
6. 13
7. 0

Each compound below has a recorded value; state its inhibition.
1. Cc1c(NC(=O)c2nn(C)c(=O)c3ccccc23)c(=O)n(-c2ccccc2)n1C
2. O=C(O)C1C2C=CC(O2)C1C(=O)NCc1ccc(Cl)cc1 (stereo unspecified)
3. CCOC(=O)C1=C(C)NC(SC(C)=O)=NC1c1ccc(OC(C)=O)c(OC)c1 (stereo unspecified)
4. CC(CCc1ccccc1)NC(C)C(O)c1ccc(O)cc1 (stereo unspecified)
5. O=C(Nc1nc(-c2ccccc2)cs1)C1CCCCN1S(=O)(=O)c1ccccc1 (stereo unspecified)
6. COc1ccc(OC)c(NS(=O)(=O)Cc2ccccc2)c1
7. Nc1nc(SCc2ccc(Cl)cc2Cl)n[nH]1

0
13
4
4
1
0
5

###

Give measured viability for each item. Keep answers brief.
- method-notes: Her2 expression decrease, cell viability multiplex – SKBR3 breast tumor cells, AlphaScreen, ATP viability, primary screen (AID 461);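 note: percent of carrier control wells set as 100% viability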
- conditions-used: SKBR3 Her2 protein level, 18-24 h, measured here: SKBR3 viability, ATP luminescence, at 10 µM
One number for each entry, in %.

Here's what some known entries look like.
# compound, unit-of-measurement, assay-value
rows = [
    ("O=C1OCCC1NC1=NCCC1 (stereo unspecified)", "%", 92),
    ("CN(C)[C@@H]1C(=O)C(C(N)=O)=C(O)[C@@]2(O)C(=O)C3=C(O)c4c(O)ccc(Cl)c4[C@@](C)(O)C3C[C@@H]12 (stereo partly specified)", "%", 119),
    ("CP(C)(=O)CCC(=O)O", "%", 101),
    ("Cn1c(=O)cc(SCC(=O)N2CCC3(CC2)OCCO3)c2ccc(Cl)cc21", "%", 116),
    ("COc1ccc(C(=O)C(C)(C)NO)cc1", "%", 108),
    ("CCCCn1c(O)c(C(CC)=Nc2cccc(C(=O)O)c2)c(=O)[nH]c1=O", "%", 97.5),
]

Batch request: viability for each of the following compounds.
1. CCOc1ccc(C2SCC(=O)Nc3c2c(=O)[nH]n3C2CCCCCC2)cc1 (stereo unspecified)
2. CN1C(=O)C(Cc2cccc3ccccc23)C(=O)N(C)C1=O
3. c1ccc(C2CC3CC(c4ccco4)N2O3)cc1 (stereo unspecified)
4. OCCOCC#CCN1CCOCC1
5. C=CCn1c(O)c(C(C)=Nc2ccc(N(CC)CC)cc2)c(=O)[nH]c1=O

110
73.5
93
102
102

###

- method-notes: HUVEC growth inhibition – cell-based, human, primary screen (AID 575);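 note: 100% = median of untreated cell wells with 0.1% DMSO on each plate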
- conditions-used: HUVEC proliferation, CellTiter-Glo luminescence, 72 h; at 10 µM; stronger effect = lower value
I'd appreciate it if you could supply viability values for the items below.
Give bare numbers, in %.

Answered examples (4):
# smiles-string, viability / %
records = [
    ("N#Cc1ccccc1Cn1cc(C(=O)C2CC2)c2ccccc21", 81.5),
    ("CN1CC[C@@]23CCCC[C@@H]2[C@@H]1Cc1ccc(O)cc13", 79.4),
    ("CP(C)(=O)CCC(=O)O", 81.4),
    ("Cc1cc(NC(=O)COC(=O)c2c(C)nn(Cc3ccccc3)c2Cl)no1", 79.2),
]

Please turn your attention to the following entry.
Entry under test: CCc1ccc(OCCCN=C(C)c2c(O)n(C)c(=O)n(C)c2=O)cc1 . Its viability was 77.7

###

- target-system: Pantothenate synthetase (Mycobacterium tuberculosis (strain ATCC 25618 / H37Rv)) (UniProt P9WIL5)
- Sequence (P9WIL5 whole entry, looked up): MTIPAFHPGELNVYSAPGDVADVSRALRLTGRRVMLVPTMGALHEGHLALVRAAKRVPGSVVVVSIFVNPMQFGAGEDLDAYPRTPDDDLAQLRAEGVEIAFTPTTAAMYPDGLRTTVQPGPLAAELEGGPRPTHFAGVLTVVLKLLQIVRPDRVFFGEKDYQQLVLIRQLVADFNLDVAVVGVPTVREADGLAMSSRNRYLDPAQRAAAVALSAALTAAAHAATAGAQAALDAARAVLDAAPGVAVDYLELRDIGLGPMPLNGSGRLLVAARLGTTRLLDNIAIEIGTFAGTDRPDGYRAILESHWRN
- method-notes: Coupled enzyme confirmation of inhibitors against recombinant Mtb PanC (AID 375);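 note: 0% = full reaction with vehicle and 100% = no enzyme background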
- conditions-used: coupled enzyme assay; at 10 µM, stronger effect = higher value
assay-readout: inhibition (%)
One number for each entry, in %.

In the examples that follow, each entry is paired with its recorded inhibition.
# molecule, assay-readout, assay-value
rows = [
    ("COc1cccc(NC(=O)N2CCC(N3CCCCC3)CC2)c1", "inhibition", 0),
    ("O=C(Nc1cc(C(F)(F)F)ccc1Cl)c1cc(C2CC2)on1", "inhibition", 2),
    ("CC1CN(S(=O)(=O)c2cccc(C(=O)OCc3cc(=O)oc4cc(O)ccc34)c2)CC(C)O1 (stereo not drawn)", "inhibition", 7),
    ("CCOc1ccc(N(CC(=O)NC2CCCC2)S(=O)(=O)c2c(C)[nH]c(=O)[nH]c2=O)cc1", "inhibition", 0),
    ("CC1CCN(S(=O)(=O)c2cn(CC(=O)N3CCN(C)CC3)c(=O)c3ccccc23)CC1", "inhibition", 4),
]

Provide reported inhibition for each item, in the same order as listed.
1. COc1ccccc1-c1nc2n(n1)C(c1ccc(Cl)cc1)C(C(N)=O)=C(C)N2 (stereo not drawn)
2. O=C(Cn1nnc(-c2cccc(C(F)(F)F)c2)n1)NC(=O)NCc1ccco1
3. COC(=O)C1=C(C)C(c2cccs2)NC(=O)N1C (stereo not drawn)
4. CC(C)N(C(=O)COC(=O)c1ccc(O)cc1)C(C)C
5. COC(=O)c1c(NC(=O)C2CC=CCC2C(=O)O)sc(C(N)=O)c1C (stereo not drawn)
6. CCc1nc(N)nc(N)c1-c1ccc(Cl)cc1

1. 0
2. 0
3. 0
4. 1
5. 1
6. 0

Items follow; give inhibition for each.
1. OCCNc1ncnc2c1c(-c1ccccc1)c(-c1ccccc1)n2Cc1ccco1
2. O=S(=O)(Cc1ccccc1)N1CCCCCC1
3. CCn1c(-c2cc(Br)ccc2O)n[nH]c1=S

1. 1
2. 0
3. 0

# map each molecule to its inhibition
1. C[C@]12C=CC(=O)C=C1CC[C@@H]1[C@@H]2[C@@H](O)C[C@@]2(C)[C@H]1CC[C@]2(O)C(=O)COC(=O)CCC(=O)O
2. CC(=O)C1=C(N2CCCCC2)CCC1=O

1. 0
2. 0

# map each molecule to its inhibition
1. O=C(CSc1nc(-c2ccccc2)cs1)NCc1ccco1
2. c1ccc(CCc2nn3c(Cn4cnc5ccccc54)nnc3s2)cc1

1: 0; 2: 5

###

- target-system: Pantothenate synthetase (Mycobacterium tuberculosis (strain ATCC 25618 / H37Rv)) (UniProt P9WIL5)
- method-notes: Coupled enzyme confirmation of inhibitors against recombinant Mtb PanC (AID 375);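 note: 0% = full reaction with vehicle and 100% = no enzyme background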
- conditions-used: coupled enzyme assay; at 10 µM, stronger effect = higher value
assay-readout: inhibition (%)
One number for each entry, in %.

Below, each entry is followed by its recorded inhibition result.
# compound, assay-value
data = [
    ("CC(=O)Nc1c(C(=O)O)[nH]c2ccccc12", 0),
    ("Cc1cc(C(=O)NCCCc2ccccc2)no1", 10),
    ("CC(=O)c1c(O)cc(C)n(Nc2nc(C)cc(C)n2)c1=O", 0),
    ("CCCOc1ccc(/C(O)=C2/C(=O)C(=O)N(CCCOC)C2c2ccncc2)cc1 (stereo unspecified)", 4),
    ("CCOC(=O)C1CCN(C(=O)CSc2cc(=O)n(CC)c3ccccc23)CC1", 4),
    ("CC(C)OCCCNC(=O)c1c(N)n(Cc2cccs2)c2nc3ccccc3nc12", 0),
    ("O=C(Cc1ccccc1)OC(COCc1ccccc1)CN1CCOCC1 (stereo unspecified)", 3),
    ("Cc1cc(Nc2ccccc2)n(CCC#N)n1", 14),
    ("CC(CCc1ccccc1)NC(=O)CSc1nc(N)cc(N)n1 (stereo unspecified)", 0),
    ("CCOC(=O)CSc1nnc(CCc2nc3ccccc3[nH]2)n1C", 10),
]

# batch: return inhibition for each of the 6 compounds below
1. Cc1cc(C)n(C(=O)CNC(=O)C2COc3ccccc3O2)n1 (stereo unspecified)
2. CCOC(=O)c1[nH]c(C)c(C(=O)Nc2ccc(C)cc2C)c1C
3. Cc1ccc(NCc2nnc(SCC(=O)N3CCCCC3)n2CC2CCCO2)c(C)c1 (stereo unspecified)
4. Cc1cc(OCC(=O)NCCO)cc(C)c1Cl
5. CCCCc1nc2ccccc2n2cc3c(=O)n(C)c(=O)n(C)c3c12
6. CC(=O)c1ccc(OCC(O)CN2CC(C)OC(C)C2)cc1 (stereo unspecified)

1
1
3
3
0
0

Report inhibition for each item below.
1. C=CCNc1oc(-c2cccc3ccccc23)nc1C#N
2. O=C1OC2(c3ccccc3)C3CCCC2C13
3. Cc1ccc(S(=O)(=O)C2(C(=O)Nc3cccnc3)CC2)cc1
4. CCOC(=O)c1oc2cc(OCC(N)=O)ccc2c(=O)c1-c1ccc(OC)c(OC)c1
5. Cc1cc(Cl)ccc1OCCCC(=O)NO
6. CCOC(=O)c1ccc(-c2c(C(=O)OCC)oc3cc(O)c(CC)cc3c2=O)o1
7. COc1ccc2cc(C#N)c(N3CCN(Cc4nnnn4CCC(C)C)CC3)nc2c1
8. COCCCNC(=O)CSc1nc2ccc(N3CCOCC3)cc2c(=O)n1CCc1ccccc1

1. 0
2. 3
3. 1
4. 3
5. 0
6. 3
7. 8
8. 0

# per-item lookup of inhibition; items listed below
1. CCOC(=O)/C(C#N)=C1\Nc2ccccc2N=C1N(CC(C)C)CC(C)C
2. COc1ccccc1NC(=O)N(Cc1ccccc1)c1ccccn1
3. Cc1ccc(OCC(=O)NCCN2CCCC2)cc1
4. O=C(Cn1ncc2c1-c1ccccc1OC2)Nc1ccc(Cl)cn1
5. CCCn1c(NC(=O)C2COc3ccccc3O2)nc2ccccc21 (stereo unspecified)
6. Cc1nnc(N(C)C(=O)Cc2ccc3c(c2)OCO3)s1

6
6
0
6
0
0

Could you report inhibition for every entry in the following list?
1. CC(=O)Nc1ccc(OC(=O)c2ccccc2N)cc1
2. CCOc1ccc(NC(=O)CN(C)CC(=O)NC2CCCc3ccccc32)cc1OCC (stereo unspecified)
3. O=C(C1CCN(c2nnc(-n3cccc3)s2)CC1)N1CCc2ccccc2C1
4. NC(=O)C1(N2CCCCC2)CCN(Cc2ccccc2Cl)CC1

[0, 7, 0, 0]
